- TARGET DESC: HLA-B*2705 expressed on C1R-neo cells (human, UniProt P01889 25-362; P61769 21-119)
- ASSAY INFO: ECL cell binding, C1R-neo B*2705 cells, pH 6.0
VALUE KIND: max RLU (RLU)
// units = RLU; emit number, no label

Answered examples (3):
(Q) State its max RLU for this binder: H4H2499N11 (antibody, V domains shown) VH: QVQLVESGGGLVKPGGSLRLSCAASGFTFSDYYMSWIRQAPGKGLEWVSYISTSGSTIYYPDSVKGRFTISRDNAKNSLNLQMNSLRAEDTAVYYCLLHYYYGMDVWGQGTTVTVSS VL: EIVLTQSPATLSLSPGERAPLSCRASQSVSSYLAWYQQKPGQPPRLLIYDASNRATGIPARFSGSGSGTDFTLTISSLEPEDFAVYYCQHRHNWPWHFGQGTKVEIK
(A) 9550

(Q) State its max RLU for this binder: H4H2499N16 (antibody, V domains shown) VH: QVQLVESGGGLVKPGGSLRLSCAASGFTFSDYYMSWIRQAPGKGLEWVSYISTSGSTIYYPDSVKGRFTISRDNAKNSLNLQMNSLRAEDTAVYYCLHHHYYGHDVWGQGTTVTVSS VL: EIVLTQSPATLSLSPGERAPLSCRASQSVSSYLAWYQQKPGQPPRLLIYDASNRATGIPARFSGSGSGTDFTLTISSLEPEDFAVYYCQQRSNWPWTFGQGTKVEIK
(A) 10000

(Q) State its max RLU for this binder: H4H2499N8 (antibody, V domains shown) VH: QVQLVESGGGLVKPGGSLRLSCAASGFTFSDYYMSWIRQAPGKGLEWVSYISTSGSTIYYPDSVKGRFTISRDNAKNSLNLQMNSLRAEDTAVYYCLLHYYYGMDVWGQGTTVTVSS VL: EIVLTQSPATLSLSPGERAPLSCRASQHVHHYLAWYQQKPGQPPRLLIYDASNRATGIPARFSGSGSGTDFTLTISSLEPEDFAVYYCQQRSNWPWTFGQGTKVEIK
(A) 19900

Continuing:
(Q) State its max RLU for this binder: H4H2499N18 (antibody, V domains shown) VH: QVQLVESGGGLVKPGGSLRLSCAASGFTFSDYYMSWIRQAPGKGLEWVSYISTSGSTIYYPDSVKGRFTISRDNAKNSLNLQMNSLRAEDTAVYYCLHHHYYGHDHWGQGTTVTVSS VL: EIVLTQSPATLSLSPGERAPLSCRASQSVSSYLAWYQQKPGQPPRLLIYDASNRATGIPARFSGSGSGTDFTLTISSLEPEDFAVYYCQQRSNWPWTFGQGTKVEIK
(A) 14600

(Q) State its max RLU for this binder: H4H2499N10 (antibody, V domains shown) VH: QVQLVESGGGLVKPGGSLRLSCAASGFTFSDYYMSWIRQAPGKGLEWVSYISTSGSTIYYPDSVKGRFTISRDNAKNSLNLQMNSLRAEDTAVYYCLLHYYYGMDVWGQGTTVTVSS VL: EIVLTQSPATLSLSPGERAPLSCRASQSVSSYLAWYQQKPGQPPRLLIYDASNRATGIPARFSGSGSGTDFTLTISSLEPEDFAVYYCQHRHHWPWHFGQGTKVEIK
(A) 9500

Hello, the source for this data is patent US20130259876A1, in case you need it.
